- system-name: HIV-1 PR (Human immunodeficiency virus type 1 group M subtype B)
- experimental-details: HIV-protease inhibitory activity assay (FRET peptide substrate)
- settings: Test Example 1
- Procedure: Test Example 1: HIV-Protease Inhibitory Activity Assay The HIV-1 PR assay was performed by using a FRET (Fluorescence Resonance Energy Transfer) peptide substrate (AnaSpec, Inc., Fremont, Calif.). Initially in the intact FRET peptide, the fluorescence of HiLyte Fluor 488 is quenched by QXL 520. Upon substrate cleavage by PR, the fluorescence is recovered and can be monitored. […] Background fluorescence intensity was measured and let it stand for another 15 minutes at room temperature. […]
// reported pIC50 per item
Quick note: pIC50 values are minus log10 of concentrations in mol/L.

molecule: CC(C)CN(CC(O)C(Cc1ccc(N(C)Cc2ccccc2C(=O)Nc2sc3c(c2C(=O)O)CC(C)(C)CC3)cc1)NC(=O)OC1COC2OCCC12)S(=O)(=O)c1ccc2c(c1)OCO2 (stereo not shown)
observed-result: 8.42
//
molecule: COc1ccc(S(=O)(=O)N(CC(C)C)CC(O)C(Cc2ccc(N(Cc3ccccn3)Cc3ccccc3-c3sc4c(c3C(=O)O)CC(C)(C)CC4)cc2)NC(=O)OC2COC3(C)OCCC23)cc1 (stereo not shown)
observed-result: 8.34
//
molecule: COc1ccc(S(=O)(=O)N(CC(C)C)CC(O)C(Cc2ccc(N(C)Cc3cc(OC)ccc3C(=O)Nc3sc4c(c3C(=O)O)CC(C)(C)CC4)cc2)NC(=O)OC2COC3(C)OCCC23)cc1 (stereo not shown)
observed-result: 8.21
//
molecule: COc1ccc(S(=O)(=O)N(CC(C)C)CC(O)C(Cc2ccc(NC3CCc4c(-c5sc6c(c5C(=O)O)CC(C)(C)CC6)cccc43)cc2)NC(=O)OC2COC3(C)OCCC23)cc1 (stereo not shown)
observed-result: 8.54
//
molecule: COc1ccc(S(=O)(=O)N(CC(C)C)CC(O)C(Cc2ccc(NCc3cccc(-c4sc5c(c4C(=O)O)CC(C)(C)CC5)c3OCc3ccccc3)cc2)NC(=O)OC2COC3(C)OCCC23)cc1 (stereo not shown)
observed-result: 8.30

IN: I have this molecule here, COc1ccc(S(=O)(=O)N(CC2CCC2)CC(O)C(Cc2ccc(NCc3ccccc3C(=O)Nc3sc4c(c3C(=O)O)CC(C)(C)CC4)cc2)NC(=O)OC2COC3OCCC23)cc1 (stereo not shown) , and I need its recorded pIC50.
OUT: 8.45

IN: Then what about the molecule COc1ccc(S(=O)(=O)N(CC(C)C)CC(O)C(Cc2ccc(Oc3ccc(-c4sc5c(c4C(=O)O)CC(C)(C)CC5)c(OC)c3)cc2)NC(=O)OC2COC3(C)OCCC23)cc1 (stereo not shown) ?
OUT: 8.85

IN: Then what about the molecule COc1ccc(S(=O)(=O)N(CC2CCCC2)CC(O)C(Cc2ccc(OCc3ccccc3-n3nc4c(c3C(=O)O)CC(C(F)(F)F)CC4)cc2)NC(=O)OC2COC3(C)OCCC23)cc1 (stereo not shown) ?
OUT: 8.85

IN: Then what about the molecule COc1ccc(S(=O)(=O)N(CC(C)C)CC(O)C(Cc2ccc(CN(C)C3CCCCC3c3sc4c(c3C(=O)O)CC(C)(C)CC4)cc2)NC(=O)OC2COC3(C)OCCC23)cc1 (stereo not shown) [Compound I-341] ?
OUT: 8.72

IN: Then what about the molecule COc1ccc(S(=O)(=O)N(CC(C)C)CC(O)C(Cc2ccc(N(CCCc3sc4c(c3C(=O)O)CC(C)(C)CC4)Cc3ccccc3)cc2)NC(=O)OC2COC3(C)OCCC23)cc1 (stereo not shown) ?
OUT: 7.98
